List of pIC50 values.
# experimentalTarget: Beta5 (Homo sapiens, UniProt P20618+P28074)
# test: Determination of Beta5 activity (fluorescence intensity assay, Suc-LLVY-AMC)
# Type: biochemical
# conditionDescription: purified human constitutive proteasome, long incubation (120 min)
pIC50: −log10 of the molar value.

chemicalStructure: Cc1cccc2c1OC[C@H]2C[C@H](NC(=O)CCN1CCCCC1=O)B(O)O
pIC50: < 5.30
--
chemicalStructure: O=C(CCN1CCCC1=O)N[C@@H](C[C@@H]1COc2ccccc21)B(O)O
pIC50: 5.30 to 6.30
--
chemicalStructure: Cc1cccc2c(C[C@H](NC(=O)CCN3C(=O)CCC3(C)C)B(O)O)coc12
pIC50: 5.30 to 6.30
